system: A-431; assay: Antiproliferative activity against human A431 cells after 72 hrs by SRB assay; type: functional, cell-based; details: A-431, 72 h
Can you tell me pIC50 for the items I'm about to list?
Remember, pIC50 is on a log scale: it is -log10 of the molar concentration.

The measured pIC50 associated with `CN(C)CCNC(=O)Nc1cc2c(Nc3ccc(F)c(Cl)c3)ncnc2cc1O[C@H]1CCOC1` reads 6.09

Notebook: `COCCNC(=O)Nc1cc2c(Nc3ccc(F)c(Cl)c3)ncnc2cc1O[C@H]1CCOC1` , pIC50 read as 6.41

Measured pIC50, `O=C(Nc1cc2c(Nc3ccc(F)c(Cl)c3)ncnc2cc1O[C@H]1CCOC1)N1CC(O)C1` : 5.71

Value of measured pIC50 for the entry `O=C(NCCN1CCCC1)Nc1cc2c(Nc3ccc(F)c(Cl)c3)ncnc2cc1O[C@H]1CCOC1` : 6.61

Looking up `O=C(Nc1cc2c(Nc3ccc(F)c(Cl)c3)ncnc2cc1O[C@H]1CCOC1)N1CC(F)C1` , I see its pIC50 listed as 5.24
